Collected literature values of IC50 measured for Coagulation factor VII (Homo sapiens).
OUTCOME MEASURE: IC50 (nM)

COc1cc(C(Nc2ccc3c(c2)CNC3=N)c2nn(-c3ncccn3)c(=O)[nH]2)cc2c1OCOC2 (single isomer, unassigned) | 20
CCC[C@H](NC(=O)Nc1ccccn1)C(=O)Nc1ccc(-c2ccccc2S(C)(=O)=O)cc1 | 2700
COc1cc(OCCO)c(F)c(C(Nc2ccc3c(c2)CNC3=N)c2nn(-c3ncoc3C(=O)O)c(=O)[nH]2)c1 (stereo not shown) | 242
CCc1cc(C(Nc2ccc(C(=N)N)cc2)c2nn(-c3ncsc3C(=O)O)c(=O)[nH]2)cc2c1OCOC2 (racemic) | 9.9
N=C(N)c1cccc(NC(=O)C(Nc2ccc(-c3ccccc3S(N)(=O)=O)cc2)c2ccccc2)c1 (stereo not shown) | 13
COc1cc(OC)cc(C(Nc2ccc(C(=N)N)cc2)c2nn(-c3ncsc3C(=O)O)c(=O)[nH]2)c1 (racemic) | 23.7
COc1cc(C(Nc2ccc(C(=N)N)cc2)c2nn(-c3ncsc3C(=O)O)c(=O)[nH]2)c(F)c2c1OCOC2 (racemic) | 25.8
CCOc1cc(O)cc(C(Nc2ccc(C(=N)N)cc2)c2nn(-c3ncccn3)c(=O)[nH]2)c1 (racemic) | 25.8
COc1cc(OCCO)c(F)c(C(Nc2ccc(C(=N)N)cc2)c2nn(-c3ccsc3C(=O)O)c(=O)[nH]2)c1 (racemic) | 2.6
N=C(N)c1cccc(OC(C(=O)Nc2ccc(N3CCCCC3=O)cc2)c2ccccc2)c1 (stereo not shown) | 14
COc1cc(C(Nc2ccc(C(=N)N)cc2)c2nn(-c3ncccn3)c(=O)[nH]2)cnc1OC (racemic) | 11.1
COc1cc(C(Nc2ccc(C(=N)N)cc2)c2nn(-c3ccccc3C(N)=O)c(=O)[nH]2)cc2c1OCOC2 (racemic) | 4.7
COc1cnc(C(Nc2ccc(C(=N)N)cc2)c2nn(-c3ccsc3C(=O)O)c(=O)[nH]2)cc1OC (racemic) | 8
COc1cc(F)c(C(Nc2ccc3c(c2)CNC3=N)c2nn(-c3nc[nH]c3C(=O)O)c(=O)[nH]2)cc1OC (stereo not shown) | 42
COCCOc1ccc(C(Nc2ccc(C(=N)N)cc2)c2nn(-c3ccsc3C(=O)O)c(=O)[nH]2)cc1OC (racemic) | 6.2
COc1cc(C(Nc2ccc(C(=N)N)cc2)c2nn(-c3ncccn3)c(=O)[nH]2)cc2c1OCC(=O)N2CCF (racemic) | 13.4
COc1cc(C(Nc2ccc(C(=N)N)cc2)c2nn(-c3ccsc3C(=O)O)c(=O)[nH]2)c(F)c2c1OCC2 (racemic) | 3.4
N=C(N)c1cccc(OC(C(=O)Nc2ccc(N3CCOCC3)cc2)c2ccccc2)c1 (stereo not shown) | 60
COc1cc(C(Nc2ccc(C(=N)N)c(F)c2)c2nn(-c3ccccc3C(=O)O)c(=O)[nH]2)cc(C)n1 (racemic) | 14.1
COc1cc(OCCO)c(F)c(C(Nc2ccc(C(=N)N)cc2)c2nn(-c3ncccc3N)c(=O)[nH]2)c1 (stereo not shown) | 11.3
COc1cc(C(Nc2ccc(C(=N)N)cc2)c2nn(-c3ccccc3C(=O)O)c(=O)[nH]2)c(F)cc1OCCO (racemic) | 14.3
CS(=O)(=O)c1ccccc1-c1ccc(NC(=O)C(Cc2cccs2)NC(=O)Nc2ccccc2)cc1 (stereo not shown) | 750
CS(=O)(=O)c1ccccc1-c1ccc(NC(=O)C(NC(=O)Nc2ccccc2)c2ccccc2)cc1 (stereo not shown) | 2000
COc1cc(F)c(C(Nc2ccc(C(=N)N)cc2)c2nn(-c3nc[nH]c3C(=O)O)c(=O)[nH]2)cc1OC (single isomer, unassigned) | 9
CSCCC(NC(=O)Nc1ccccc1)C(=O)Nc1ccc(-c2ccccc2S(C)(=O)=O)cc1 (stereo not shown) | 1800
COc1cc(F)c(C(Nc2ccc(C(=N)N)cc2)c2nn(-c3[nH]ncc3C(=O)O)c(=O)[nH]2)cc1OC (stereo not shown) | 59.4
CCC[C@@H](NC(=O)Nc1ccccc1)C(=O)Nc1ccc(-c2ccccc2S(C)(=O)=O)cc1 | 930
